Quick reference for pEC50 among some molecules
Target: full-length B-Catenin (Uniprot ID P35222) (Homo sapiens)
Construct: 65 nM full-length B-Catenin (Uniprot ID P35222)
Sequence (P35222 whole entry): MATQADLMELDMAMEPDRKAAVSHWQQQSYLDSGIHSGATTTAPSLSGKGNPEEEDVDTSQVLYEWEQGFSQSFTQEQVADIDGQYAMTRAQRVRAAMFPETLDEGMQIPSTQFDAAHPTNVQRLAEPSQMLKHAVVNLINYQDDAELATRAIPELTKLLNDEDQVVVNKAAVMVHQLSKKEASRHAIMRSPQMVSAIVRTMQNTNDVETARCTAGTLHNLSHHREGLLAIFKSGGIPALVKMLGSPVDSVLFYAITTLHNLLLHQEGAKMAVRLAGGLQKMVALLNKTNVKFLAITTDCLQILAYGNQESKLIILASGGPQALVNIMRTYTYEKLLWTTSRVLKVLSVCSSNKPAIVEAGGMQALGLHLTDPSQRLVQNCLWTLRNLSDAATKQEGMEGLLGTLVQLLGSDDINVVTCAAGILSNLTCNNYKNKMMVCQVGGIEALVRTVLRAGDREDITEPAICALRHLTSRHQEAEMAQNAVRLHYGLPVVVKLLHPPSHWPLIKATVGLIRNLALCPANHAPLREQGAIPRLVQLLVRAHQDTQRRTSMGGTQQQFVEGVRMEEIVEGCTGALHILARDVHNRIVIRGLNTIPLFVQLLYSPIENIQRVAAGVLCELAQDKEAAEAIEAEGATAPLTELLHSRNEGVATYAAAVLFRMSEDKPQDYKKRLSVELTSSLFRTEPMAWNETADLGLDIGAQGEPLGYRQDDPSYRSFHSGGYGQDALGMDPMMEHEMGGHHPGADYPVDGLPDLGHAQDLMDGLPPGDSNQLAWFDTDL
Experiment: Alphascreen binding assay (beta-catenin / biotin-TCF4 10-53)
Hey, just a heads up that pEC50 is the negative log base 10 of the concentration in molar.

CC(=O)N1CCC[C@]12CC=CCCCC1(CCCC=CCCCCCC[C@@](C)(C(=O)N[C@@H](Cc3ccccc3F)C(=O)N[C@@H](Cc3c[nH]c4ccccc34)C(=O)N[C@@H](CCC(N)=O)C(N)=O)NC(=O)[C@H](C(C)C)NC(=O)[C@H](Cc3ccccc3)NC(=O)[C@H](C)NC(=O)[C@H](C)NC(=O)[C@H](CC(=O)O)NC(=O)[C@H](CC(=O)O)NC1=O)NC(=O)[C@H](C)NC(=O)[C@H](CC(=O)O)NC2=O (some centres unmarked) [I-318]; 6.92

Could you share which pEC50 value was measured for CC(=O)N1CCC[C@]12CC=CCCCC1(CCCC=CCCCCCC[C@@](C)(C(=O)N[C@@H](Cc3ccccc3)C(=O)N[C@@H](Cc3c[nH]c4ccccc34)C(=O)N[C@@H](CCC(N)=O)C(N)=O)NC(=O)[C@H](C(C)C)NC(=O)[C@H](Cc3c[nH]cn3)NC(=O)[C@H](C)NC(=O)[C@H](C)NC(=O)[C@H](CC(=O)O)NC(=O)[C@H](CC(=O)O)NC1=O)NC(=O)[C@H](C)NC(=O)[C@H](CC(=O)O)NC2=O (some centres unmarked) [I-321] ? 5.65
